Entry source: ChEMBL document CHEMBL1138360

System: HT-29
Assay: Drug penetration in anoxic HT29 cells assessed as penetration half distance
Type: ADME, cell-based
Conditions: human

{"MOLECULAR STRING": "CCc1n[n+]([O-])c2ccc(OCCCN3CCOCC3)cc2[n+]1[O-]", "Activity": "64 µM"}

----------
Test system: HT-29
Experiment: Cell viability in anoxic HT29 cells assessed as drug level providing 10% surviving fraction by clonogenic assay
Type: cell-based
Conditions: human
READOUT NAME: Activity (µM·h)

{"MOLECULAR STRING": "CCc1n[n+]([O-])c2ccc(C)cc2[n+]1[O-]", "TARGET": "HT-29", "UNIT SYMBOL": "µM·h", "RECORDED RESULT": 52.4}
{"MOLECULAR STRING": "COCCCc1n[n+]([O-])c2ccccc2[n+]1[O-]", "TARGET": "HT-29", "UNIT SYMBOL": "µM·h", "RECORDED RESULT": 26.7}
{"MOLECULAR STRING": "[O-][n+]1nc(CCCN2CCOCC2)[n+]([O-])c2ccccc21", "TARGET": "HT-29", "UNIT SYMBOL": "µM·h", "RECORDED RESULT": 3.2}
{"MOLECULAR STRING": "CCc1n[n+]([O-])c2ccc(OCCCN3CCOCC3)cc2[n+]1[O-]", "TARGET": "HT-29", "UNIT SYMBOL": "µM·h", "RECORDED RESULT": 38.6}
{"MOLECULAR STRING": "CCc1n[n+]([O-])c2ccc(OCCN(C)C)cc2[n+]1[O-]", "TARGET": "HT-29", "UNIT SYMBOL": "µM·h", "RECORDED RESULT": 5.1}
{"MOLECULAR STRING": "[O-][n+]1nc(CCCN2CCCCC2)[n+]([O-])c2ccccc21", "TARGET": "HT-29", "UNIT SYMBOL": "µM·h", "RECORDED RESULT": 1.5}
{"MOLECULAR STRING": "COCCc1n[n+]([O-])c2ccc(C)cc2[n+]1[O-]", "TARGET": "HT-29", "UNIT SYMBOL": "µM·h", "RECORDED RESULT": 57.9}
{"MOLECULAR STRING": "CCc1n[n+]([O-])c2cc(OCCOC)ccc2[n+]1[O-]", "TARGET": "HT-29", "UNIT SYMBOL": "µM·h", "RECORDED RESULT": 40.7}
{"MOLECULAR STRING": "[O-][n+]1nc(CCCO)[n+]([O-])c2ccccc21", "TARGET": "HT-29", "UNIT SYMBOL": "µM·h", "RECORDED RESULT": 30.2}
{"MOLECULAR STRING": "CCc1n[n+]([O-])c2ccccc2[n+]1[O-]", "TARGET": "HT-29", "UNIT SYMBOL": "µM·h", "RECORDED RESULT": 19.7}
{"MOLECULAR STRING": "Cc1n[n+]([O-])c2ccccc2[n+]1[O-]", "TARGET": "HT-29", "UNIT SYMBOL": "µM·h", "RECORDED RESULT": 25.3}
{"MOLECULAR STRING": "CN(C)CCCc1n[n+]([O-])c2ccccc2[n+]1[O-]", "TARGET": "HT-29", "UNIT SYMBOL": "µM·h", "RECORDED RESULT": 2.1}
{"MOLECULAR STRING": "CCc1n[n+]([O-])c2ccc(OCCN3CCCCC3)cc2[n+]1[O-]", "TARGET": "HT-29", "UNIT SYMBOL": "µM·h", "RECORDED RESULT": 6.8}
{"MOLECULAR STRING": "[O-][n+]1nc(CCN2CCOCC2)[n+]([O-])c2ccccc21", "TARGET": "HT-29", "UNIT SYMBOL": "µM·h", "RECORDED RESULT": 10}
{"MOLECULAR STRING": "CCc1n[n+]([O-])c2ccc(OCCOC)cc2[n+]1[O-]", "TARGET": "HT-29", "UNIT SYMBOL": "µM·h", "RECORDED RESULT": 213.2}
{"MOLECULAR STRING": "CCc1n[n+]([O-])c2ccc(OC)cc2[n+]1[O-]", "TARGET": "HT-29", "UNIT SYMBOL": "µM·h", "RECORDED RESULT": 69.9}
{"MOLECULAR STRING": "COCCc1n[n+]([O-])c2ccccc2[n+]1[O-]", "TARGET": "HT-29", "UNIT SYMBOL": "µM·h", "RECORDED RESULT": 21.3}
{"MOLECULAR STRING": "CCc1n[n+]([O-])c2cc(OCCN(C)C)ccc2[n+]1[O-]", "TARGET": "HT-29", "UNIT SYMBOL": "µM·h", "RECORDED RESULT": 1.8}
